System: A. baumannii Ab-ARA (wild type, empty cassette)
Test: microbe, parasite or virus in culture
Assay type: cell-based
Conditions: Acinetobacter baumannii, at least three independent measurements, read-out: MIC
Please respond with reported log10(MIC) for every item in the list.
Please keep in mind that the values are log10 of MIC expressed in µg/mL.

Problem: # log10(MIC) lookup, item C[C@@H](O)[C@H]1C(=O)N2C(C(=O)O)=C(S[C@@H]3CN[C@H](C(=O)N(C)C)C3)[C@H](C)[C@H]12 [Meropenem]
Solution: -0.60

Problem: # log10(MIC) lookup, item C[C@H]1c2cccc(O)c2C(=O)C2=C(O)[C@]3(O)C(=O)C(C(N)=O)=C(O)[C@@H](N(C)C)[C@@H]3[C@@H](O)[C@@H]21 [Doxycycline]
Solution: -1.40

Problem: # log10(MIC) lookup, item CC[C@H]1OC(=O)[C@H](C)[C@@H](O[C@H]2C[C@@](C)(OC)[C@@H](O)[C@H](C)O2)[C@H](C)[C@@H](O[C@@H]2O[C@H](C)C[C@H](N(C)C)[C@H]2O)[C@](C)(O)C[C@@H](C)CN(C)[C@H](C)[C@@H](O)[C@]1(C)O [Azithromycin]
Solution: -0.51

Problem: # log10(MIC) lookup, item CC1(C)S[C@@H]2[C@H](NC(=O)C(C(=O)O)c3ccccc3)C(=O)N2[C@H]1C(=O)O (stereo partly drawn) [Carbenicillin]
Solution: 3.31

Problem: # log10(MIC) lookup, item CN(C)[C@@H]1C(O)=C(C(N)=O)C(=O)[C@@]2(O)C(O)=C3C(=O)c4c(O)cccc4[C@@](C)(O)[C@H]3C[C@@H]12 [Tetracycline]
Solution: -0.90

Problem: # log10(MIC) lookup, item Cc1onc(-c2ccccc2Cl)c1C(=O)N[C@@H]1C(=O)N2[C@@H]1SC(C)(C)[C@@H]2C(=O)O [Cloxacillin]
Solution: 3.01
